Ref: paper PMC13393665

system-under-test: TAS2R46 (hTAS2R46) (Homo sapiens, UniProt P59540)
Construct: full-length TAS2R46 with first 45 amino acids of SST3 fused at N-terminus; pEF-DEST51; transient in HEK293 with G-alpha16-gust44 and mitochondrial Clytin II
Sequence (P59540 whole entry, the tested form may be a part): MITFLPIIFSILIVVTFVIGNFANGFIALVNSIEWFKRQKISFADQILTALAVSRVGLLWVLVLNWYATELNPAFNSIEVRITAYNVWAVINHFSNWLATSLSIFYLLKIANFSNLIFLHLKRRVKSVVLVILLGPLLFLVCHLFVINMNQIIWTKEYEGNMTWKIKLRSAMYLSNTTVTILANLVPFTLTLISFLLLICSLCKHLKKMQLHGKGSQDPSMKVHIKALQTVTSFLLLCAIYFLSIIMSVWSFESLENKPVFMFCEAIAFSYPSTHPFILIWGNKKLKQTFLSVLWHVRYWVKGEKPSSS
assay-method-text: Clytin II luminescence calcium assay, HEK293
Assay type: cell-based
value-type: pEC50
Quick note: pEC50 values are minus log10 of concentrations in mol/L.

Ask: Look up pEC50: `C[C@]12CC[C@H]3[C@@H](CCC4=CC(=O)CC[C@@]43C)[C@@H]1CC[C@@H]2O`
Result: 4.93
